Entry source: PubChem BioAssay AID1851

- measured-target: Cytochrome P450 1A2 (Homo sapiens)
- method-summary: Cytochrome panel assay with activity outcomes
- condition-label: recombinant CYP, pro-luciferin dealkylation, luminescence, p450-cyp1a2; series mostly up to 57.1 µM
The whole screen tested about 16,000 compounds, of which about 5,700 (36%) were called active. Another 24% or so got no clear call; they are omitted. Calls follow the shape of the dose curve; as a rule, active = well fitted curve in the direction sought with a large enough effect; inconclusive = small, poorly fitted or top-dose-only effect, or effect the other way; inactive = no such curve, though single readings can be large or run the other way. The list shows a part of the results.
Valid outcomes are listed here; reply with one: active, inactive

These solved cases illustrate the format of a correct answer.
[
  {
    "molecule": "CN(C)c1ccnc(Oc2ccc(Cl)cc2)c1C#N",
    "class-assignment": "active"
  },
  {
    "molecule": "O=C(c1csnn1)N1CCC[C@@]2(CCN(c3ccncc3)C2)C1",
    "class-assignment": "inactive"
  },
  {
    "molecule": "CCc1ccc(N(C(=O)c2ccoc2C)C(C(=O)NC2CCCC2)c2ccc(OC)cc2)cc1 (centres undefined)",
    "class-assignment": "inactive"
  },
  {
    "molecule": "CN(C)c1ccc(-c2cc(NCc3cccnc3)ncn2)cc1",
    "class-assignment": "active"
  }
]

Q: Per the assay record, what outcome was assigned to COC(=O)N1CCC2(CC1)CCN(C(c1ccccc1)c1ccccc1)CC2 ?
A: inactive

Q: // next record CS(=O)(=O)Nc1cccc(-c2ccc3ncnc(Nc4ccc(F)cc4)c3c2)c1
A: active

Q: // next record CC(=O)OCc1nc2ccccc2s1
A: active

Q: // next record CCCS(=O)(=O)N1CCCC(C(=O)NCCCOCC)C1 (centres undefined)
A: inactive

Q: // next record Cn1ncc2c(Nc3cccc(C(=O)O)c3)ncnc21
A: inactive

Q: // next record Cc1cccc(N(CC(=O)N2CCOCC2)S(C)(=O)=O)c1
A: inactive

Q: // next record CCOC(=O)N1CCN(C(=O)c2ccc(OC)c(OC)c2)CC1
A: inactive

Q: // next record O=C(OCc1nc2ccccc2s1)c1ccc(Br)s1
A: active

Q: // next record CCOC(=O)N1CCN(C(=O)c2ccc(Cl)c(S(=O)(=O)N3CCOCC3)c2)CC1
A: active

Q: // next record CNc1ncnc2ccc(-c3cccc(NS(C)(=O)=O)c3)cc12
A: active
